Values were extracted from the supplement of paper PMC3545927.

SUBJECT_OF_TEST: furin, P09958
Sequence (P09958 whole entry): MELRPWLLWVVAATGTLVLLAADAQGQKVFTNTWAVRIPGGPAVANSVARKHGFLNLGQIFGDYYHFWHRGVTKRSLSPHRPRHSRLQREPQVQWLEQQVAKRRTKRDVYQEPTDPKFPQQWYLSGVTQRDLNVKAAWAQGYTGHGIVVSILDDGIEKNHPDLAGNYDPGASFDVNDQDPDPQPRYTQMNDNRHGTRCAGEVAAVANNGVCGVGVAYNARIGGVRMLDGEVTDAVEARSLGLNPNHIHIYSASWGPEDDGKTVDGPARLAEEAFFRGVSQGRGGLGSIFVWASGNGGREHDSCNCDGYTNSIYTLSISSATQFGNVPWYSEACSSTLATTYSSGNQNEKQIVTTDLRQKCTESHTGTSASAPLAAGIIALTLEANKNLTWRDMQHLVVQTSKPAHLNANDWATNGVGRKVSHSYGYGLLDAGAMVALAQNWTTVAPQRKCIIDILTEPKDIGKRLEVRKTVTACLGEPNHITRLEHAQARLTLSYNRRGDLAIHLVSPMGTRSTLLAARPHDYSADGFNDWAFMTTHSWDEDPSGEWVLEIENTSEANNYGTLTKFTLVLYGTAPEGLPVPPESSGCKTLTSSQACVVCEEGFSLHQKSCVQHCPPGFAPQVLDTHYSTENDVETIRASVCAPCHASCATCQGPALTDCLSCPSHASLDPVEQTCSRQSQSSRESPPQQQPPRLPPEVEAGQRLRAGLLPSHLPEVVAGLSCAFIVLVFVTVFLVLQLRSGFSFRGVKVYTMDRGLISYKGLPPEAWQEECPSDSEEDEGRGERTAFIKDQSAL
PROTOCOL_SUMMARY: furin cleavage Z-score vs untreated control; higher = more cleavage, active = 3.5 or more, inactive = 1 or less, 8 variable residues between constant flanks;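 further: purified furin at 1:10 enzyme:substrate in 50 mM HEPES pH 7.5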
ASSAY_CONTEXT: 7.5 min
Some of the results follow. The true hit rate is not given.
MEASURED_PARAMETER: furin cleavage Z-score
Give your answer as a number; write no unit.

Would you please look over these solved cases?
CALLSRKRRRAGNASASA [FS-1539]    11.7
CAGAGRARRRAGNASASA [FS-995]    -0.00606
CADVNRLKREAGNASASA [FS-648]    14.4

The recorded furin cleavage Z-score for CAPPSRARRRAGNASASA [FS-73] is 5.98
